Source listed as patent US20260356856A1.

Target: KRas-mediated phosphorylation of ERK in H358 cells (Homo sapiens, UniProt P01116, G12C)
Construct: pERK HTRF read-out
Sequence (P01116 1-188 isoform P01116-2 G12C): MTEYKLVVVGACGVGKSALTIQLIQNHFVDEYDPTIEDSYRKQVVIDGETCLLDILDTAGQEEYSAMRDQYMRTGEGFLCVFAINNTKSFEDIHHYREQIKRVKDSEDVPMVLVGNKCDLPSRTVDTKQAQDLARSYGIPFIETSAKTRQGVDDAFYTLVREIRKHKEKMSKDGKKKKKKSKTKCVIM
Assay: Inhibition of KRas-mediated phosphorylation of ERK (HTRF), H358 cells
Assay type: cell-based
Conditions: HTRF pERK, 3 h incubation
Quantity Kind: IC50 (nM)
Give bare numbers, in nM.

[[record]]
molecule = "CN(CCCC(=O)Oc1ccc(F)cc1)c1nc(OC[C@@]23CCCN2C[C@H](F)C3)nc2c(F)c(-c3ccc(F)c4sc(N)c(C#N)c34)c(Cl)cc12"
measured_on = "KRas-mediated phosphorylation of ERK in H358 cells (Homo sapiens, UniProt P01116, G12C)"
recorded_measurement = 77

[[record]]
molecule = "CCc1c(F)ccc2cc(O)cc(-c3ncc4c(N(C)CCC(C)C(=O)N(C)C(C)=O)nc(OC[C@@]56CCCN5C[C@H](F)C6)nc4c3F)c12 (stereo partly shown)"
measured_on = "KRas-mediated phosphorylation of ERK in H358 cells (Homo sapiens, UniProt P01116, G12C)"
recorded_measurement = 39

[[record]]
molecule = "CCc1c(F)ccc2cc(O)cc(-c3ncc4c(N5CCC(C(=O)n6cc(OC)cn6)CC5)nc(OC[C@@]56CCCN5C[C@H](F)C6)nc4c3F)c12"
measured_on = "KRas-mediated phosphorylation of ERK in H358 cells (Homo sapiens, UniProt P01116, G12C)"
recorded_measurement = 4490


Consider now this further molecule.
Documented IC50 of Cc1ccn(C(=O)C2CCCN(c3nc(OC[C@@]45CCCN4C[C@H](F)C5)nc4c(F)c(-c5ccc(F)c6sc(N)c(C#N)c56)c(C(F)(F)F)cc34)CC2)n1 (stereo partly shown) : 3

###

Target: KRas-mediated phosphorylation of ERK in H358 cells (Homo sapiens, UniProt P01116, G12C)
Construct: pERK HTRF read-out
Experiment: Inhibition of KRas-mediated phosphorylation of ERK (HTRF), H358 cells
Type: cell-based
Settings: HTRF pERK, 3 h incubation
I'd be grateful if you could share measured log10(IC50) for these entries.
Hello, just confirming the data are log10 of IC50 with units of nM.

Recorded log10(IC50), per entry:
[[record]]
molecule = "CC(=O)N(C)C(=O)[C@H]1C[C@@H]2CN(c3nc(OC[C@@]45CCCN4C[C@H](F)C5)nc4c(F)c(-c5ccc(F)c6sc(N)c(C#N)c56)c(Cl)cc34)C[C@@H]2C1 (atropisomer, axis not shown; (aR)) [Example 236]"
measured_on = "KRas-mediated phosphorylation of ERK in H358 cells (Homo sapiens, UniProt P01116, G12C)"
quantity_kind = "log10(IC50)"
recorded_measurement = 2.03

[[record]]
molecule = "CC(=O)N(C)C(=O)CCCN(C)c1nc(OC[C@@]23CCCN2C[C@H](F)C3)nc2c(F)c(-c3ccc(F)c4sc(N)c(C#N)c34)c(Cl)cc12 [Example 259]"
measured_on = "KRas-mediated phosphorylation of ERK in H358 cells (Homo sapiens, UniProt P01116, G12C)"
quantity_kind = "log10(IC50)"
recorded_measurement = 1.90

[[record]]
molecule = "CC(C)C(=O)N(C)C(=O)C1CCN(c2nc(OC[C@@]34CCCN3C[C@H](F)C4)nc3c(F)c(-c4ccc(F)c5sc(N)c(C#N)c45)c(Cl)cc23)CC1 [Example 206]"
measured_on = "KRas-mediated phosphorylation of ERK in H358 cells (Homo sapiens, UniProt P01116, G12C)"
quantity_kind = "log10(IC50)"
recorded_measurement = 1.49

[[record]]
molecule = "CN(CCCC(=O)N(C)c1ccccn1)c1nc(OC[C@@]23CCCN2C[C@H](F)C3)nc2c(F)c(-c3ccc(F)c4sc(N)c(C#N)c34)c(Cl)cc12 [Example 200]"
measured_on = "KRas-mediated phosphorylation of ERK in H358 cells (Homo sapiens, UniProt P01116, G12C)"
quantity_kind = "log10(IC50)"
recorded_measurement = 2.05

[[record]]
molecule = "CN(CCCC(=O)N(C)c1ccncn1)c1nc(OC[C@@]23CCCN2C[C@H](F)C3)nc2c(F)c(-c3ccc(F)c4sc(N)c(C#N)c34)c(Cl)cc12 [Example 268]"
measured_on = "KRas-mediated phosphorylation of ERK in H358 cells (Homo sapiens, UniProt P01116, G12C)"
quantity_kind = "log10(IC50)"
recorded_measurement = 1.88


Batch: log10(IC50) for all items listed.
1. CCc1c(F)ccc2cc(O)cc(-c3ncc4c(N5CCC(C(=O)n6nc(C)c(C)c6C)CC5)nc(OC[C@@]56CCCN5C[C@H](F)C6)nc4c3F)c12 [Example 73]
2. CC(=O)N(C)C(=O)C1CCN(c2nc(OC[C@@]34CCCN3C[C@H](F)C4)nc3c(F)c(-c4ccc(F)c5sc(N)c(C#N)c45)c(Cl)cc23)CC1 [Example 253]

Response:
1: 3.65; 2: 1.79

Batch: log10(IC50) for all items listed.
1. CCc1c(F)ccc2cc(O)cc(-c3ncc4c(N5CCC(C(=O)n6cccn6)CC5)nc(OC[C@@]56CCCN5C[C@H](F)C6)nc4c3F)c12 [Example 4]
2. Cn1ccc(COC(=O)C2CCN(c3nc(OC[C@@]45CCCN4C[C@H](F)C5)nc4c(F)c(-c5ccc(F)c6sc(N)c(C#N)c56)c(Cl)cc34)CC2)n1 [Example 245]

Response:
1. 3.74
2. 2.17
